Where do the numbers come from? From patent US6342261B1.

Test system: Acetyl-CoA synthetase EC 6.2.1.1
Experiment: Enzyme activity under gas: acetyl-CoA synthetase
Type: biochemical

molecule | Result, %
[Kr] [Kr, krypton] | −16
[Xe] [Xe, xenon] | −18
[Ar] [Ar, argon] | −75
[Ne] [Ne, neon] | −15

###

# maps each entry to its Result (inhibition), maximum inhibition of enzyme activity
Target: Gamma-glutamyl transpeptidase EC 2.3.2.2 (Homo sapiens, UniProt P19440)
Sequence (P19440 whole entry): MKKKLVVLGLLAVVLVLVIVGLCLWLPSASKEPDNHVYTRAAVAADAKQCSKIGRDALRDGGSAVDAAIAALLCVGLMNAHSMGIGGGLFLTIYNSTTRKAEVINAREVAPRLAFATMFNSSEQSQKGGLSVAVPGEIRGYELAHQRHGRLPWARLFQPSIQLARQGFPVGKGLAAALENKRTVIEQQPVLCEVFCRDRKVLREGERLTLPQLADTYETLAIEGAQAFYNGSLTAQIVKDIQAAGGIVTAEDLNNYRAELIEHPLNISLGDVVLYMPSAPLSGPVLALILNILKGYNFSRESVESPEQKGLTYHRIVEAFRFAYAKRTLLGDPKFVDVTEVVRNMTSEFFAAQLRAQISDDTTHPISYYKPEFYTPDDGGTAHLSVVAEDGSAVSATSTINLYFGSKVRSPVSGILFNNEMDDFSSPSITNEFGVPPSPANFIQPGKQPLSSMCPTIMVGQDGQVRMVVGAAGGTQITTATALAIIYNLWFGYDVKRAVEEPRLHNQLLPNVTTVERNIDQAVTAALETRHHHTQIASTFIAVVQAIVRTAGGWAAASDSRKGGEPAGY
Assay: Enzyme activity under gas: gamma-glutamyl transpeptidase
Type: biochemical
quantity: Result (inhibition), maximum inhibition of enzyme activity (%)

structure | measured
[Ne] | −3
[Kr] | −8
[Ar] | −5

###

Target: Glucose oxidase EC 1.1.3.4 (Aspergillus niger, UniProt P13006)
Sequence (P13006 17-605): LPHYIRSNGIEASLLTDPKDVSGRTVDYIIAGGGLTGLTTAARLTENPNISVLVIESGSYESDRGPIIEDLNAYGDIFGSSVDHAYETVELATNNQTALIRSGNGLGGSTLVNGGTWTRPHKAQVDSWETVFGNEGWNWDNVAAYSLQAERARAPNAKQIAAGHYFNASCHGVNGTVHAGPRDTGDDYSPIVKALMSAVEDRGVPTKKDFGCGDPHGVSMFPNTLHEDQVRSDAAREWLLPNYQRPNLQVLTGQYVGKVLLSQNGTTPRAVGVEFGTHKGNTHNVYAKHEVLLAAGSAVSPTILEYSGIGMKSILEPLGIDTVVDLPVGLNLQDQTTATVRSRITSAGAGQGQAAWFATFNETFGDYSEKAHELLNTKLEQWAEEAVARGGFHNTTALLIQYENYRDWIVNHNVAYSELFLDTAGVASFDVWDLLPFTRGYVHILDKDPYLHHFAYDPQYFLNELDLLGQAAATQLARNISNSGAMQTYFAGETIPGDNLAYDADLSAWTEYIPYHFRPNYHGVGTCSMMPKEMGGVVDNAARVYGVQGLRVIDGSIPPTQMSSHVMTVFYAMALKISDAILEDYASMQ
Assay: Enzyme activity under gas: glucose oxidase
Assay type: biochemical
quantity: Result (inhibition), maximum inhibition of enzyme activity (%)

molecule | test system | display unit | measured
[Ar] [Ar, argon] | Glucose oxidase EC 1.1.3.4 (Aspergillus niger, UniProt P13006) | % | −85.8
[Ne] [Ne, neon] | Glucose oxidase EC 1.1.3.4 (Aspergillus niger, UniProt P13006) | % | −61.7
[Kr] [Kr, krypton] | Glucose oxidase EC 1.1.3.4 (Aspergillus niger, UniProt P13006) | % | −92.7

###

System: Aspartate aminotransferase (EC 2.6.1.1)
Test: Enzyme activity under gas: aspartate aminotransferase
Type: biochemical
Below, each entry is listed with its recorded Result (inhibition), maximum inhibition of enzyme activity.
quantity: Result (inhibition), maximum inhibition of enzyme activity (%)

structure | test system | measured
[Kr] | Aspartate aminotransferase (EC 2.6.1.1) | −82
[Ne] | Aspartate aminotransferase (EC 2.6.1.1) | −12
[Ar] | Aspartate aminotransferase (EC 2.6.1.1) | −17

###

Tested on: Lipase EC 3.1.1.3
Assay: Enzyme activity under gas: lipase
Format: biochemical

structure | display unit | Result, With Lipase
[Kr] | % | −25
[Ne] | % | −15
[Xe] | % | −25.6
[Ar] | % | −18

###

Test system: Tyrosinase EC 1.14.18.1
Assay: Enzyme activity under gas: tyrosinase
Type: biochemical
Details: 25°, optimal reaction conditions, simple saturation of solution with gas
quantity: Result (inhibition vs air), maximum inhibition of enzyme activity (%)

compound | test system | display unit | measured
O=C=O [CO2, carbon dioxide, reference compound] | Tyrosinase EC 1.14.18.1 | % | 0
[Ne] | Tyrosinase EC 1.14.18.1 | % | −46.7
[Ar] | Tyrosinase EC 1.14.18.1 | % | −60
[Kr] | Tyrosinase EC 1.14.18.1 | % | −73
N#N [Gas N2, nitrogen, reference compound] | Tyrosinase EC 1.14.18.1 | % | 0
